Origin of measurements: paper PMC8222333

binding signal for assorted binders
# assayed_system: d-enCas12a-Ultra (Acidaminococcus sp., UniProt U2UMQ6 1-1307, E174R;S542R;K548R;M537R;F870L;D908A;E993A;D1235A)
# protocol_description: Spec-seq (native PAGE EMSA with sequencing of bound and unbound); 25 mM Tris-HCl pH 7.4, 150 mM KCl, 5 mM MgCl2, 10% glycerol, 1 mM DTT, 40 ng/uL salmon sperm DNA; 400 nM Cas12a, 480 nM crRNA, 50 nM library, 37 C 1 h; native PAGE at room temperature; high values mean tight binding;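 further: relative affinity from the bound to unbound sequence frequency ratio in Spec-seq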
# assay_context: protein: recombinant
# output: numeric value plus its unit

GTCT (dsDNA) DNA 1: GCTATCTAGTGCTCAGTACGCACTGGTCTAGGAAACTTCTGGCAGGACCAGGTCATGAGATCGGAAGAGCACACGTCTGAACTCCAGTCA DNA 2: TGACTGGAGTTCAGACGTGTGCTCTTCCGATCTCATGACCTGGTCCTGCCAGAAGTTTCCTAGACCAGTGCGTACTGAGCACTAGATAGC RNA: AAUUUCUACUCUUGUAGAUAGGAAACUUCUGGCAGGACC | -0.927 lnKA

Give the measured binding signal for CTTA (dsDNA) DNA 1: GCTATCTAGTGCTCAGTACGCACTGCTTAAGGAAACTTCTGGCAGGACCAGGTCATGAGATCGGAAGAGCACACGTCTGAACTCCAGTCA DNA 2: TGACTGGAGTTCAGACGTGTGCTCTTCCGATCTCATGACCTGGTCCTGCCAGAAGTTTCCTTAAGCAGTGCGTACTGAGCACTAGATAGC RNA: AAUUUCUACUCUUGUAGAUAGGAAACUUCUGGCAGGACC
-0.177 lnKA

Identify measured binding signal corresponding to TTCC (dsDNA) DNA 1: GCTATCTAGTGCTCAGTACGCACTGTTCCAGGAAACTTCTGGCAGGACCAGGTCATGAGATCGGAAGAGCACACGTCTGAACTCCAGTCA DNA 2: TGACTGGAGTTCAGACGTGTGCTCTTCCGATCTCATGACCTGGTCCTGCCAGAAGTTTCCTGGAACAGTGCGTACTGAGCACTAGATAGC RNA: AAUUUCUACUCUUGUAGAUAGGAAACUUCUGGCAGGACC
-0.0946 lnKA
